Test: Effective permeability of the compound at pH 7.4 at 30 to 50 uM by PAMPA assay
Assay type: ADME
Details: read-out: Peff
Label rule, in plain words: Papp at up to 50 µM of 20 ×10⁻⁶ cm/s and up is Satisfied, under 20 ×10⁻⁶ cm/s is Not satisfied.

// known answers, use as guide
CCN(CC)CCCCNc1c2ccc(Cl)cc2nc2ccc(OC)cc12
Not satisfied
CCN(CC)CCNc1c2ccc(Cl)cc2nc2ccc(OC)cc12
Satisfied
CCN(CC)CCCC(C)Nc1c2ccc(Cl)cc2nc2ccc(OC)cc12 (stereo unspecified)
Not satisfied
COc1ccc2nc3cc(Cl)ccc3c(Nc3ccc(N4CCN(C(C)=O)CC4)cc3)c2c1
Not satisfied
COc1ccc2nc3cc(Cl)ccc3c(NCCCN(C)C)c2c1
Not satisfied

Is the recorded value of Papp at up to 50 µM equal to or greater than 20 ×10⁻⁶ cm/s for this compound? COc1ccc2nc3cc(Cl)ccc3c(NCC#CCN3CCN(C)CC3)c2c1
Not satisfied

Is the recorded value of Papp at up to 50 µM equal to or greater than 20 ×10⁻⁶ cm/s for this compound? COc1ccc2nc3cc(Cl)ccc3c(NC3CCN(CCc4ccccc4)CC3)c2c1
Not satisfied

Is the recorded value of Papp at up to 50 µM equal to or greater than 20 ×10⁻⁶ cm/s for this compound? COc1ccc2nc3cc(Cl)ccc3c(NC3CCN(Cc4ccc(Cl)cc4)CC3)c2c1
Not satisfied

Is the recorded value of Papp at up to 50 µM equal to or greater than 20 ×10⁻⁶ cm/s for this compound? COc1ccc2nc3cc(Cl)ccc3c(NC3CCN(Cc4ccc(C#N)cc4)CC3)c2c1
Not satisfied

Is the recorded value of Papp at up to 50 µM equal to or greater than 20 ×10⁻⁶ cm/s for this compound? COc1ccc2nc3cc(Cl)ccc3c(Nc3ccc(CN4CCCCC4)cc3)c2c1
Not satisfied

Is the recorded value of Papp at up to 50 µM equal to or greater than 20 ×10⁻⁶ cm/s for this compound? CCN(CC)CCCNc1c2ccc(Cl)cc2nc2ccc(OC)cc12
Satisfied

The measured values listed here are drawn from ChEMBL document CHEMBL2150853.
